Assay: Bioavailability after peroral administration (1 mg/kg) was determined in dog
Format: ADME, organism-based, Canis lupus familiaris
Settings: in vivo, po
outcomeMeasure: bioavailability (%)
One number for each entry, in %.

Exercise: I would be grateful if you could share the reported bioavailability for O=C(N[C@H]1c2ccccc2C[C@H]1O)[C@H](Cc1cccc(O)c1)[C@@H](C(=O)NO)C1CCNCC1 .
Key: 20

---

Experiment: Tmax after peroral administration (1 mg/kg) was determined in dog
Format: ADME, organism-based, Canis lupus familiaris
Conditions: in vivo, po
outcomeMeasure: Tmax (h)
Give bare numbers, in h.

Exercise: What value of Tmax has been reported for the following compound? O=C(N[C@H]1c2ccccc2C[C@H]1O)[C@H](Cc1cccc(O)c1)[C@@H](C(=O)NO)C1CCNCC1
Key: 4.3
